Reported residence time by item:
Target: cruzain (Trypanosoma cruzi)
Sequence (P25779 123-337 limits assumed): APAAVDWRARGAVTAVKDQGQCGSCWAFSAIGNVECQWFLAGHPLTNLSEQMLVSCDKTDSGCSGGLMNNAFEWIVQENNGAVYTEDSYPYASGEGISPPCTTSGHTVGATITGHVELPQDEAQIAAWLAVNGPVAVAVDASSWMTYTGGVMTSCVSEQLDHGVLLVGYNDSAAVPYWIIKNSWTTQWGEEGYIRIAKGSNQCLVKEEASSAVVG
Assay: biochemical
Conditions: read-out: Residence time τ=1/kobs
Residues, ends and D or L forms follow the SMILES beside them. *: point of attachment. Cbz = O=C(OCc1ccccc1)*
measure-name: residence time

>>> print(df.to_string())
                                   compound                system_tested    measure_name          result
0  O=C(N[C@@H](Cc1ccccc1)C(=O)N[C@H]1Cc2cc(Cl)ccc2OC1O)OCc1ccccc1 (some centres unmarked)  cruzain (Trypanosoma cruzi)  residence time  2.5 to 5.5 min
1  Cc1ccc2c(c1)C[C@H](NC(=O)[C@H](Cc1ccccc1)NC(=O)OCc1ccccc1)C(O)O2 (some centres unmarked)  cruzain (Trypanosoma cruzi)  residence time  2.5 to 5.5 min
2  O=C[C@H](Cc1ccccc1)NC(=O)[C@H](Cc1ccccc1)NC(=O)OCc1ccccc1 [Compound 1, Cbz-Phe-Phe-H] (Cbz-Phe-Phe-aldehyde)  cruzain (Trypanosoma cruzi)  residence time          52 min
3  CN1CCN(C(=O)N[C@@H](Cc2ccccc2)C(=O)N[C@H]2Cc3ccccc3OC2O)CC1 (some centres unmarked)  cruzain (Trypanosoma cruzi)  residence time          26 min
4  COC(=O)c1ccc2c(c1)C[C@H](NC(=O)[C@H](Cc1ccccc1)NC(=O)OCc1ccccc1)C(O)O2 (some centres unmarked)  cruzain (Trypanosoma cruzi)  residence time  2.5 to 5.5 min
5  O=C(N[C@@H](Cc1ccccc1)C(=O)N[C@H]1Cc2cc(F)ccc2OC1O)OCc1ccccc1 (some centres unmarked)  cruzain (Trypanosoma cruzi)  residence time  2.5 to 5.5 min
6  O=C(N[C@@H](Cc1ccccc1)C(=O)N[C@H]1Cc2ccccc2OC1O)OCc1ccccc1 (some centres unmarked)  cruzain (Trypanosoma cruzi)  residence time  2.5 to 5.5 min
7  COc1ccc2c(c1)C[C@H](NC(=O)[C@H](Cc1ccccc1)NC(=O)OCc1ccccc1)C(O)O2 (some centres unmarked)  cruzain (Trypanosoma cruzi)  residence time  2.5 to 5.5 min

###

Test system: T. cruzi-infected cardiomyoblasts
Test: T. cruzi-infected C2C12 murine cardiomyoblast assay
Format: cell-based
Settings: Trypanosoma cruzi, C2C12, in Mus musculus, 48 h, read-out: T. cruzi-infected cardiomyoblasts EC50, C2C12 cells, T. cruzi Ca-I/72, 2 days, 0.02–40 μM
Residues, ends and D or L forms follow the SMILES beside them. *: point of attachment. Cbz = O=C(OCc1ccccc1)*
measure-name: EC50 (nM)

In [3]: df
Out[3]:
                                   compound  unit_of_measurement  quantitative_readout
0  O=C[C@H](Cc1ccccc1)NC(=O)[C@H](Cc1ccccc1)NC(=O)OCc1ccccc1 [Compound 1, Cbz-Phe-Phe-H] (Cbz-Phe-Phe-aldehyde)                   nM                   400
